Just for reference, ChEMBL document CHEMBL5352392 is where these values come from.

- assaySystem: Serine/threonine-protein kinase mTOR (Homo sapiens)
- procedureText: Inhibition of mTOR (unknown origin) at 100 nM by kinase profiling assay relative to control
reportedProperty: inhibition (%)
Output spec: scalar in %, unitless text.

# annotated cases, reported inhibition shown
1) CC(C)c1cc(C(=O)N2CCc3c(sc4nc(-c5ccc(NC(=O)Nc6ccc(F)c(Cl)c6)cc5)nc(N5CCOCC5)c34)C2)c(O)cc1O 83.1
2) CN1CCc2c(sc3nc(-c4ccc(N)cc4)nc(N4CCOCC4)c23)C1 66.2

INPUT: Which value of inhibition has been reported for `CC(C)c1cc(C(=O)N2CCc3c(sc4nc(N5CCOC[C@@H]5C)nc(N5CCOC[C@@H]5C)c34)C2)c(O)cc1O` in the records?
OUTPUT: 75.4

INPUT: Note, next up: `CC(C)c1cc(C(=O)N2CCc3c(sc4nc(N5CCOCC5)nc(N5CCCC5)c34)C2)c(O)cc1O`
OUTPUT: 40.9

INPUT: Another: `Cc1ccccc1NC(=O)Nc1ccc(-c2nc(N3CCOCC3)c3c4c(sc3n2)CN(C(=O)c2cc(C(C)C)c(O)cc2O)CC4)cc1`
OUTPUT: 68.2

INPUT: Same question for `CC(C)c1cc(C(=O)N2CCc3c(sc4nc(-c5ccc(NC(=O)Nc6cccc(F)c6)cc5)nc(N5CCOCC5)c34)C2)c(O)cc1O` please.
OUTPUT: 47.7

INPUT: And then `CC(C)c1cc(C(=O)N2CCc3c(sc4nc(-c5ccncc5)nc(N5CCOCC5)c34)C2)c(O)cc1O` , what is it?
OUTPUT: 49.8

INPUT: Next compound: `CC(C)c1cc(C(=O)N2CCc3c(sc4nc(-c5ccc(NC(=O)Nc6ccc(Cl)cc6)cc5)nc(N5CCOCC5)c34)C2)c(O)cc1O`
OUTPUT: 77.3

INPUT: Request: `CC(C)c1cc(C(=O)N2CCc3c(sc4nc(-c5ccc(N)cc5)nc(N5CCOCC5)c34)C2)c(O)cc1O`
OUTPUT: 67.4

INPUT: Now try `CC(C)c1cc(C(=O)N2CCc3c(sc4nc(-c5ccc(NC(=O)Nc6ccc(F)cc6)cc5)nc(N5CCOCC5)c34)C2)c(O)cc1O` .
OUTPUT: 77.4

INPUT: Queued: `CC(C)c1cc(C(=O)N2CCc3c(sc4nc(-c5ccc(NC(=O)Nc6ccccc6)cc5)nc(N5CCOCC5)c34)C2)c(O)cc1O`
OUTPUT: 74.5

INPUT: Please answer likewise for `CC(C)c1cc(C(=O)N2CCc3c(sc4nc(N5CCCCC5)nc(N5CCOCC5)c34)C2)c(O)cc1O`
OUTPUT: 55.7

INPUT: Then `CC(C)c1cc(C(=O)N2CCc3c(sc4nc(-c5ccc(NC(=O)Nc6ccccc6F)cc5)nc(N5CCOCC5)c34)C2)c(O)cc1O` ?
OUTPUT: 74.8

----------
- assaySystem: Heat shock protein HSP90 (Homo sapiens, UniProt P07900+P08238)
- testSettings: dose 100.0 nM
- Description: Inhibition of Hsp90 (unknown origin) at 100 nM by TR-FRET assay relative to control
So basically: inhibition at 60% or higher? That is 1. Lower than 60%? That is 0.

Field: example entries. Status: answers known.
1. CC(C)c1cc(C(=O)N2CCc3c(sc4nc(N5CCCC5)nc(N5CCOCC5)c34)C2)c(O)cc1O 0
2. CC(C)c1cc(C(=O)N2CCc3c(sc4nc(N5CCOCC5)nc(N5CCOC(F)(F)C5)c34)C2)c(O)cc1O 0
3. CC(C)c1cc(C(=O)N2CCc3c(sc4nc(-c5ccc(NC(=O)Nc6ccc(F)cc6)cc5)nc(N5CCOCC5)c34)C2)c(O)cc1O 1

INPUT: API: above_or_equal(metric=inhibition, cutoff=60%) for item `CCNC(=O)Nc1ccc(-c2nc(N3CCOCC3)c3c4c(sc3n2)CN(C(=O)c2cc(C(C)C)c(O)cc2O)CC4)cc1`
OUTPUT: 1

INPUT: And for `CC(C)c1cc(C(=O)N2CCc3c(sc4nc(N5CCC(F)(F)CC5)nc(N5CCOCC5)c34)C2)c(O)cc1O` ?
OUTPUT: 0

INPUT: Now the same for `CC(C)c1cc(C(=O)N2CCc3c(sc4nc(-c5ccc(NC(=O)Nc6ccc(Cl)cc6)cc5)nc(N5CCOCC5)c34)C2)c(O)cc1O`
OUTPUT: 1

INPUT: // next record `CC(C)c1cc(C(=O)N2CCc3c(sc4nc(N5CCN(C)CC5)nc(N5CCOCC5)c34)C2)c(O)cc1O`
OUTPUT: 1

INPUT: Input `CC(C)c1cc(C(=O)N2CCc3c(sc4nc(N5CCOC[C@@H]5C)nc(N5CCOC[C@@H]5C)c34)C2)c(O)cc1O`
OUTPUT: 0

INPUT: Could you do the same for `CC(C)c1cc(C(=O)N2CCc3c(sc4nc(-c5ccc(NC(=O)Nc6ccccc6F)cc5)nc(N5CCOCC5)c34)C2)c(O)cc1O` , please?
OUTPUT: 1

INPUT: Check `CC(C)c1cc(C(=O)N2CCc3c(sc4nc(-c5ccc(NC(=O)Nc6cccc(Cl)c6)cc5)nc(N5CCOCC5)c34)C2)c(O)cc1O` too.
OUTPUT: 1

INPUT: Also, `CC(C)c1cc(C(=O)N2CCc3c(sc4nc(-c5ccncc5)nc(N5CCOCC5)c34)C2)c(O)cc1O` please.
OUTPUT: 0

INPUT: Record: `CC(C)c1cc(C(=O)N2CCc3c(sc4nc(-c5ccc(NC(=O)N6CCCCC6)cc5)nc(N5CCOCC5)c34)C2)c(O)cc1O`
OUTPUT: 0

INPUT: Check `CC(C)c1cc(C(=O)N2CCc3c(sc4nc(N5CCOCC5)nc(N5CCC(N(C)C)CC5)c34)C2)c(O)cc1O` too.
OUTPUT: 0

INPUT: Can you check `CC(C)c1cc(C(=O)N2CCc3c(sc4nc(N5CCOCC5)nc(NCCN5CCOCC5)c34)C2)c(O)cc1O` next?
OUTPUT: 1

INPUT: Let us now turn to `CC(C)c1cc(C(=O)N2CCc3c(sc4nc(NCCN5CCOCC5)nc(N5CCOCC5)c34)C2)c(O)cc1O`
OUTPUT: 1

INPUT: Item: `CC(C)c1cc(C(=O)N2CCc3c(sc4nc(-c5ccc(NC(=O)Nc6ccccc6Cl)cc5)nc(N5CCOCC5)c34)C2)c(O)cc1O`
OUTPUT: 1

INPUT: Also, `CC(C)c1cc(C(=O)N2CCc3c(sc4nc(N5CCOCC5)nc(NC5CCOCC5)c34)C2)c(O)cc1O` please.
OUTPUT: 0

INPUT: Now consider `CC(C)c1cc(C(=O)N2CCc3c(sc4nc(N5CCOCC5)nc(N5CCOCC5)c34)C2)c(O)cc1O` and answer again.
OUTPUT: 0

INPUT: Try the molecule `CC(C)c1cc(C(=O)N2CCc3c(sc4nc(-c5ccc(NC(=O)Nc6cc(F)cc(F)c6)cc5)nc(N5CCOCC5)c34)C2)c(O)cc1O`
OUTPUT: 0

INPUT: Try `CC(C)c1cc(C(=O)N2CCc3c(sc4nc(-c5ccc(NC(=O)Nc6cccc(F)c6)cc5)nc(N5CCOCC5)c34)C2)c(O)cc1O` next.
OUTPUT: 1
